The values you see were collected from patent US20050009840A1.

Molecular target: Met kinase domain (GST fusion protein) (Homo sapiens)
Construct: Purified GST fusion protein containing the Met kinase domain
Sequence (P08581 1078-1345 limits assumed): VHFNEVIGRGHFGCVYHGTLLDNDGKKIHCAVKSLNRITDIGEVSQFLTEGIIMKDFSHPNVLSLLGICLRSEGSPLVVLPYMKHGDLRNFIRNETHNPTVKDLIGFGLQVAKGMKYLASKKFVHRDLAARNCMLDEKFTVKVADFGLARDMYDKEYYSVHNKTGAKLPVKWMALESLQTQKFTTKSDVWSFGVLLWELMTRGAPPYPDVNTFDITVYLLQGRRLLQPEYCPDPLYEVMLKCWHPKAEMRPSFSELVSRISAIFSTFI
Experiment: Met transphosphorylation assay (ELISA, poly(glu-tyr) substrate);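 further: Cell-free ELISA with plate-bound poly(Glu:Tyr 4:1) phosphorylated by GST-fused Met kinase domain plus ATP and Mn2+, phosphotyrosine detected by anti-phosphotyrosine antibody with HRP and ABTS read-out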
Format: biochemical
Details: Table 2; read-out: Met IC50
pIC50: −log10 of the molar value.
The reader will find reported pIC50 values listed item by item below.

- molecule: "CN1CCN(C(=O)c2ccc(-c3cnc(N)c(OCc4c(F)ccc(F)c4Cl)c3)cc2)CC1 [Example I-212]"
  pIC50: 7.20
- molecule: "CCN(CC)CCS(=O)(=O)Nc1cccc(-c2cnc(N)c(OCc3c(F)ccc(F)c3Cl)c2)c1 [Example I-258]"
  pIC50: 5.78
- molecule: "Nc1ncc(-c2ccc(NS(=O)(=O)CCN3CCCCC3)cc2)cc1OCc1c(F)ccc(F)c1Cl [Example I-248]"
  pIC50: 6.94
- molecule: "CC(Oc1cc(-c2ccc(NS(=O)(=O)CCNC3CC3)cc2)cnc1N)c1c(Cl)ccc(F)c1Cl (stereo not drawn) [Example I-297]"
  pIC50: 6.79
- molecule: "CC(Oc1cc(-c2ccc(C(=O)N3CCC(N)CC3)cc2)cnc1N)c1c(Cl)ccc(F)c1Cl (stereo not drawn) [Example I-305]"
  pIC50: 6.74
- molecule: "CC(Oc1cc(-c2cccc(C(=O)N3CCC[C@@H]3CN3CCCC3)c2)cnc1N)c1c(Cl)ccc(F)c1Cl (stereo partly drawn) [Example I-318]"
  pIC50: 6.89
- molecule: "CC(Oc1cc(-c2ccc(C(=O)N3CCC[C@@H]3CO)cc2)cnc1N)c1c(Cl)ccc(F)c1Cl (stereo partly drawn) [Example I-308]"
  pIC50: 7.48
- molecule: "Nc1ncc(-c2cccc(C(=O)N3CC[C@H](N)C3)c2)cc1OCc1c(F)ccc(F)c1Cl [Example I-233]"
  pIC50: 6.92
- molecule: "CC(Oc1cc(-c2cccc(C(=O)N3CC[C@H](N)C3)c2)cnc1N)c1c(F)ccc(F)c1Cl (stereo partly drawn) [Example I-349]"
  pIC50: 6.89
- molecule: "CC(Oc1cc(-c2ccc(C(=O)NC3CCN(C)CC3)cc2)cnc1N)c1c(F)ccc(F)c1Cl (stereo not drawn) [Example I-332]"
  pIC50: 7.10
- molecule: "CC(Oc1cc(-c2ccc(C(=O)NCCN3CCOCC3)cc2)cnc1N)c1c(Cl)ccc(F)c1Cl (stereo not drawn) [Example I-302]"
  pIC50: 7.15
- molecule: "Nc1ncc(-c2ccc(N3CCCS3(=O)=O)cc2)cc1OCc1c(F)ccc(F)c1Cl [Example I-240]"
  pIC50: 7.00
- molecule: "CC(Oc1cc(-c2ccc(OCCC3CCCN3C)cc2)cnc1N)c1c(Cl)ccc(F)c1Cl (stereo not drawn) [Example I-356]"
  pIC50: 7.10
- molecule: "Nc1ncc(-c2ccc(C(=O)NCCCN3CCOCC3)cc2)cc1OCc1ccc(F)cc1Cl [Example I-210]"
  pIC50: 5.24
- molecule: "Nc1ncc(-c2cccc(C(=O)NCCCN3CCOCC3)c2)cc1OCc1c(F)ccc(F)c1Cl [Example I-238]"
  pIC50: 6.46
